t1/2: recorded values
target: T1, Fel d1 (B-A)-mmH (cat (Felis domesticus)); experiment: SPR, mAb captured, Fel d1 (B-A)-mmH injected, 25 C;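 also: rate constants obtained by fitting sensorgrams to a one-to-one binding model, Kd computed as koff over kon, half-life derived from koff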
T1 construct: Expressed in CHO cells; also called rFel d1.mmH; rFel d1-mmH
T1 sequence (chain, as listed by the source limits assumed): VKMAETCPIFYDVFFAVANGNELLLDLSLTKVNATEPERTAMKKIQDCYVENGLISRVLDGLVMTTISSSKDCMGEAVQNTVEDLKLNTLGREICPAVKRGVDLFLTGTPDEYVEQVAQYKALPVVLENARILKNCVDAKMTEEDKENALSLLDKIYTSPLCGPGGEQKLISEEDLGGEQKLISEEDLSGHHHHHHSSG
Form entry: value (min) — number only.

Recorded t1/2, per entry:
H4H1232N (antibody, human IgG4, V domains shown, human IgG4 Fc (prefix H4H); also called REGN1908) VH: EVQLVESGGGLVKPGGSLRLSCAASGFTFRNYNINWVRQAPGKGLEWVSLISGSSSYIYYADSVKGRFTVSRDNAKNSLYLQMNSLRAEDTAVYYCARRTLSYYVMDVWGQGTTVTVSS VL: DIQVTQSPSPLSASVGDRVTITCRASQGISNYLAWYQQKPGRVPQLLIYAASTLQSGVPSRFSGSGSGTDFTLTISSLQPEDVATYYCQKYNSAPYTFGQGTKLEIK; 45
H4H2606B (antibody, human IgG4, V domains shown, human IgG4 Fc (prefix H4H)) VH: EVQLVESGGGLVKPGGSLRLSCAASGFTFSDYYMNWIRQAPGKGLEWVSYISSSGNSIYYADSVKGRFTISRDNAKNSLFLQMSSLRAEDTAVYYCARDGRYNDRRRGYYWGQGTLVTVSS VL: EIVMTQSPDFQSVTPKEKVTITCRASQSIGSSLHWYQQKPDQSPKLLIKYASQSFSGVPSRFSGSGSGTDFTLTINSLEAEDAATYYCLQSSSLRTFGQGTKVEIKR; 24
H2M1236N (antibody, mouse IgG2, V domains shown, chimeric, human variable domains with mouse IgG2 Fc (prefix H2M)) VH: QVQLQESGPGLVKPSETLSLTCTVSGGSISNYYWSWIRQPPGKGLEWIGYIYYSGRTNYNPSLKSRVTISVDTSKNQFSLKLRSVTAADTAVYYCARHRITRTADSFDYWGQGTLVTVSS VL: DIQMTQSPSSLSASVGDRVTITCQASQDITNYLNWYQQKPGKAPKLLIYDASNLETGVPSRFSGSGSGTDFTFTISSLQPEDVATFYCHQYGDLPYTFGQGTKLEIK; 50
H1M1241N (antibody, V domains shown, chimeric, human variable domains with mouse Fc (prefix H1M)) VH: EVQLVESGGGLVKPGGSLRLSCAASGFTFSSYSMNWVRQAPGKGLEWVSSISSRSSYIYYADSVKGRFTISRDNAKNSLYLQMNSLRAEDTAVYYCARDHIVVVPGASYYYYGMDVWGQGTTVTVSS VL: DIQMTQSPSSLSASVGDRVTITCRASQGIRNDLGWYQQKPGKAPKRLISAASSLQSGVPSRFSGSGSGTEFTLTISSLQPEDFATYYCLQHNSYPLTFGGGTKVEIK; 104

Ask: // query t1/2 value for entry H2M1242N (antibody, mouse IgG2, V domains shown, chimeric, human variable domains with mouse IgG2 Fc (prefix H2M)) VH: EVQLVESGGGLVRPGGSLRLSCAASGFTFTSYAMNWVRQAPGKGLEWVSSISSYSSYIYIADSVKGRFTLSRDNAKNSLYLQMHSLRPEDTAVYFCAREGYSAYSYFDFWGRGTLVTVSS VL: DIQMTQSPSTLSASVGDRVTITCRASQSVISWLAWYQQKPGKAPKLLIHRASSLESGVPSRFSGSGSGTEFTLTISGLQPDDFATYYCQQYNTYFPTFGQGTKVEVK
Result: 94
